assay: Oral median lethal dose in Swiss mice (Cox strain); format: in vivo; conditions: mouse, in vivo, po, 24 hours, female mice; 95% confidence limits 2300-3591 mg/kg
Measured Property: LD50 at 24 h (mg/kg)
Note: unit mg/kg is implicit; provide only the numeric part.

Value of LD50 at 24 h reported for the compound Clc1ccc([I+]c2cccs2)cc1.[Cl-] is 2700

====

assay: Oral median lethal dose in Swiss mice (Cox strain); assay type: in vivo; settings: mouse, in vivo, po, 14 days, female mice; 95% confidence limits 1264-1975 mg/kg
Measured Property: LD50 at 336 h

GET /value?item= Clc1ccc([I+]c2cccs2)cc1.[Cl-] &field=LD50 at 336 h returns 1580 mg/kg

====

assay: Oral median lethal dose in Sprague-Dawley (Cox strain) rats; assay type: in vivo; conditions: rat, in vivo, po, 7 and 14 days, male rats; 95% confidence limits 1171-2296 mg/kg
Measured Property: LD50 (mg/kg)
Express it in mg/kg; write the number only.

Record Clc1ccc([I+]c2cccs2)cc1.[Cl-] , field LD50: 1640

====

experiment: Oral median lethal dose in Sprague-Dawley (Cox strain) rats; assay type: in vivo; settings: rat, in vivo, po, 24 hours, male rats; 95% confidence limits 1241-2610 mg/kg
Measured Property: LD50 at 24 h (mg/kg)
Give a bare numeral; the unit mg/kg is implied.

molecule Clc1ccc([I+]c2cccs2)cc1.[Cl-] , LD50 at 24 h observed: 1800

====

experiment: Range-finding median lethal dose (LD50) in mice; conditions: mouse, in vivo; single oral dose in corn oil, 14-day observation
# note: exactly 800 mg/kg is not below, so it is label 0; use label 1 for LD50 strictly under it

is_below(LD50, 800 mg/kg) for Cc1ccc([I+]c2cccs2)cc1 [Compound 7 (Table 2)] ?
label 1

Find out if reported LD50 for Cc1ccc(C)c([I+]c2cccs2)c1 [Compound 9 (Table 2)] is less than 800 mg/kg
label 0

Is it true that LD50 reported for Clc1ccc([I+]c2cccs2)cc1 [Compound 5 (Table 2)] is less than 800 mg/kg?
label 0

For this molecule, is LD50 lower than 800 mg/kg? Clc1ccc([I+]c2ccccc2)cc1.[Cl-] [phenyl-4-chlorophenyliodonium chloride, reference compound]
label 1

Just wondering, is LD50 of c1ccc(-c2ccc([I+]c3cccs3)cc2)cc1 [Compound 11 (Table 2)] below 800 mg/kg?
label 0

Take the molecule Clc1ccc([I+]c2cccs2)cc1Cl [Compound 6 (Table 2)] and say whether its LD50 is less than 800 mg/kg.
label 0

Item CCc1ccc([I+]c2cccs2)cc1 [Compound 8 (Table 2)] : LD50 beneath 800 mg/kg, strictly?
label 0

Lab note: confirm whether the reported LD50 for this molecule is below 800 mg/kg, equality not counting. molecule: c1ccc([I+]c2ccccc2)cc1 [Compound 1 (Table 2)]
label 1

Quick check: does c1ccc(Oc2ccc([I+]c3cccs3)cc2)cc1 [Compound 10 (Table 2)] have LD50 under 800 mg/kg?
label 0

Here's an entry: c1csc([I+]c2cccs2)c1 [Compound 4 (Table 2)] . Is its LD50 below 800 mg/kg?
label 1

Strictly below 800 mg/kg in LD50? c1ccc([I+]c2cccs2)cc1 [Compound 3 (Table 2)]
label 0

====

test: Oral median lethal dose in Sprague-Dawley (Cox strain) rats; type: in vivo; conditions: rat, in vivo, po, 24 hours, female rats; 95% confidence limits 1230-2080 mg/kg
Measured Property: LD50 at 24 h (mg/kg)
Could you give me the number in mg/kg? Just the number is fine.

Entry Clc1ccc([I+]c2cccs2)cc1.[Cl-] — recorded LD50 at 24 h = 1600
